Target: Poly [ADP-ribose] polymerase tankyrase-1 (Homo sapiens)
Sequence (O95271 whole entry): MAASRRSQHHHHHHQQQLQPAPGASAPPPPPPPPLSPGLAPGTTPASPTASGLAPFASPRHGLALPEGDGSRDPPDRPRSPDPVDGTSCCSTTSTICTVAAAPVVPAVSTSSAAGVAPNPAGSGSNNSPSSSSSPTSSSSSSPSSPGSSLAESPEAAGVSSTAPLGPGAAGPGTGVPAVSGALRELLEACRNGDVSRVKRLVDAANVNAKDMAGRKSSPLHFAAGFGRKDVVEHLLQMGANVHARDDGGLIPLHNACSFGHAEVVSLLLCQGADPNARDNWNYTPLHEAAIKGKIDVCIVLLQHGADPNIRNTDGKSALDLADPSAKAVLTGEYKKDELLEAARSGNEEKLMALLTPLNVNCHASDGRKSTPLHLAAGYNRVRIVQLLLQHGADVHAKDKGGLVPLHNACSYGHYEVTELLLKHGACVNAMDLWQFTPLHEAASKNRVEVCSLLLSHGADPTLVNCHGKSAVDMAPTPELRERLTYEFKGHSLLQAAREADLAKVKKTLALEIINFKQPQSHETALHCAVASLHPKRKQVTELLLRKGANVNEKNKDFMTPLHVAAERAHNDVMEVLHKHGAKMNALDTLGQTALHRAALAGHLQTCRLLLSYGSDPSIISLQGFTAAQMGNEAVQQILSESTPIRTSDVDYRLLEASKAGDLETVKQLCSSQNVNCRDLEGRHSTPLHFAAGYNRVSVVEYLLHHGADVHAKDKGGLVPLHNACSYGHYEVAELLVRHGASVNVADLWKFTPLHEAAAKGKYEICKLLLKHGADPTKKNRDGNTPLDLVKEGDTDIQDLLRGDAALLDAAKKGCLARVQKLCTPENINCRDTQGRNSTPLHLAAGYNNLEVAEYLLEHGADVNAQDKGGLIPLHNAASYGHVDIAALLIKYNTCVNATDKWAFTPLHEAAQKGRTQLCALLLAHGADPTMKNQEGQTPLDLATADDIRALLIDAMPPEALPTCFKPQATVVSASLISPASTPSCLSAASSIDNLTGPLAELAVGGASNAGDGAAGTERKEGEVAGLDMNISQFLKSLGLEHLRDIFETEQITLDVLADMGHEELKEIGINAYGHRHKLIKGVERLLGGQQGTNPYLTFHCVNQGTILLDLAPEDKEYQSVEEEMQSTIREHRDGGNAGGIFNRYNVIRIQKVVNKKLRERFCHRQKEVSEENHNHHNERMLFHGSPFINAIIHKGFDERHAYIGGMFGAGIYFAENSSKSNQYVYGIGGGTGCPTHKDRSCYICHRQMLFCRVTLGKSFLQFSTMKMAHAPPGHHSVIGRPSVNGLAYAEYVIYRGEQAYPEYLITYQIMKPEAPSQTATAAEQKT
Experiment: Tankyrase Biochemical Assays: The tankyrase 1 biochemical activity of the compounds was assayed in the following assay buffer (50 mM MOPS pH7.5, 100 mM NaCl, […] MgCl2, 0.01% Tween-20, 0.05% BSA, and 1 mM DTT) as follows: […] of 6×HIS-tankyrase 1 (1091-1325) was incubated in the presence of compound (DMSO […] final) in a Perkin Elmer 384 well Proxiplate Plus™ (cat. no. 6008289) with 400 n
PROPERTY_LABEL: IC50 (nM)

I = CC1(C)OC(=O)N([C@H]2CC[C@H](NC(=O)c3csc(-c4ccccc4)n3)CC2)[C@H]1c1ccccc1
II = CC1(C)OC(=O)N(c2ccc(-c3cc(-c4ncco4)c[nH]c3=O)cc2)[C@H]1c1ccccc1
III = CC1(C)OC(=O)N([C@H]2CC[C@H](NC(=O)c3ccnc(-c4ccccc4)n3)CC2)[C@H]1c1ccccc1
Req: Put the above compounds in order of rising IC50, beginning with the smallest. Order the labels as requested and list them.
Resp: I, III, II
(I: 5.18 nM, III: 11.4 nM, II: 167 nM)
